Molecular target: UniProt Q9NR96
Sequence (Q9NR96 26-1032): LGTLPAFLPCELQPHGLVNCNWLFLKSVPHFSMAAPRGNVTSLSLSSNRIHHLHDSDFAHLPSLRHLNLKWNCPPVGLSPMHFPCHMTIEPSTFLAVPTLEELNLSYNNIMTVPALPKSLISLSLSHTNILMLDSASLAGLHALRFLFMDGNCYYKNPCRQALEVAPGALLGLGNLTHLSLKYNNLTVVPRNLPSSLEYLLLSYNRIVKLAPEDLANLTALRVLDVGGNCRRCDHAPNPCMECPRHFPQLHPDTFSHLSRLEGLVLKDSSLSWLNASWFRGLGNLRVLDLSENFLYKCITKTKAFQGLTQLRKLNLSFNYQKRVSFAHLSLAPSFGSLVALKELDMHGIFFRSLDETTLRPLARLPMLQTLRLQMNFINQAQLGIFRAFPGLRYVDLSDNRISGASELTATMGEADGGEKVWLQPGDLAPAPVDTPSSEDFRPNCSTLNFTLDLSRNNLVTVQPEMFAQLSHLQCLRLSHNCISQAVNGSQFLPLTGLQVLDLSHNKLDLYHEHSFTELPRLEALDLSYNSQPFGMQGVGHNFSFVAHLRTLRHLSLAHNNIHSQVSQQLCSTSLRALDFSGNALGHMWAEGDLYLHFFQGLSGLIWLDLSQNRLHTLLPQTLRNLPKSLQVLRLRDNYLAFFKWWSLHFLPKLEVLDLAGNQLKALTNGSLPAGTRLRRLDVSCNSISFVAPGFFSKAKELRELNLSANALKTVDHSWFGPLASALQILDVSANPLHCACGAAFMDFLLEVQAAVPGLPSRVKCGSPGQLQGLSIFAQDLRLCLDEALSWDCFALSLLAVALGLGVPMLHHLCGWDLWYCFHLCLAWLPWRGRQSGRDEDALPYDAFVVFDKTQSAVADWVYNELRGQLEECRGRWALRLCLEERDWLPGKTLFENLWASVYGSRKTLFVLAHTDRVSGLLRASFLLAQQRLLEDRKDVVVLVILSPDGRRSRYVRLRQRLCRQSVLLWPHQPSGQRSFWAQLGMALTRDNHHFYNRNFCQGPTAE
Assay: TLR9 inhibition reporter assay (HEK-Blue cells, SEAP reporter)
Conditions: HEK-Blue cells overexpressing human TLR9; stimulated with ODN2006 5 nM; 22 hour incubation; SEAP readout
pIC50: −log10 of the molar value.
Experimental endpoint: pIC50

Cc1cc(-c2ccc(N3CCN(C4CCOCC4)CC3)cc2)cn2cc(-c3ccc(S(C)(=O)=O)cc3)nc12	6.35
Cc1cc(C2CCN(C3CC4CCC(C3)N4CC3CCC3)CC2)cn2cc(-c3ccc(S(C)(=O)=O)cc3)nc12 (single isomer, unassigned) [Example 89]	6.48
CS(=O)(=O)c1ccc(-c2cn3cc(C4CCN(C5CC6CCC(C5)N6CC5CC5)CC4)cc(F)c3n2)cc1 (single isomer, unassigned) [Example 116]	8.41
CS(=O)(=O)c1ccc(-c2cn3cc(C4CCN(C5CCN(C6CC6)CC5)CC4)c(F)cc3n2)cc1	6.80
CS(=O)(=O)c1ccc(-c2cn3c(n2)CC[C@H](C2CCN(C4CC5CCC(C4)N5CC4CC4)CC2)C3)cc1 (single isomer, unassigned) [Example 138]	6.42
COc1ccc(-c2nc3cc(C4CCN(C5CCN(CC(C)C)CC5)CC4)ccn3n2)cc1OC	5.91
COc1ccc(-c2cn3c(n2)CCC(C2CCN(C4CC5(C4)CN(C(C)C)C5)CC2)C3)cc1OC (single isomer, unassigned) [Example 47]	7.33
COc1ccc(-c2cn3cc(C4CC5CCC(C4)N5C4CCN(C5CC5)CC4)cc(C)c3n2)cc1OC (single isomer, unassigned) [Example 25]	7.80

a: CS(=O)(=O)c1ccc(-c2cn3cc(C4CCN(C5CCN(CC6CC6)CC5)CC4)cc(F)c3n2)cc1
b: Cc1cc(-c2ccc(N3CCN(C4CCC4)CC3)cc2)cn2cc(-c3ccc(S(C)(=O)=O)cc3)nc12
c: CS(=O)(=O)c1ccc(-c2cn3c(n2)CC[C@@H](C2CCN(C4CC5CCC(C4)N5CC4CC4)CC2)C3)cc1 (single isomer, unassigned) [Example 141]
d: COc1ccc(-c2cn3cc(-c4ccc(N5CCN(CC(C)C)CC5)cc4)cc(C)c3n2)cc1OC
e: CC(C)CN1CCC(N2CCC(c3ccc4nc(-c5ccc(S(C)(=O)=O)cc5)cn4c3F)CC2)CC1
Provide the items ranked by increasing pIC50. A ranking is expressed here by listing the labels in the requested order. b, d, e, c, a
(b: 6.15, d: 6.66, e: 7.24, c: 7.64, a: 8.37)

Data provenance is patent US12486267B2.
